Catalogue of compounds with associated viability index
- System: Plasmodium falciparum NF54 stage V gametocytes
- assay-text: viability index relative to DMSO control (fraction); higher = less gametocyte killing
- condition-context: 2.5 µM, library set: Broad Institute DOS, incubation time: 72 h
In all, about 9,900 compounds were measured (“viability index relative to DMSO control”: median about 1, lowest 2% from about 0.85 on). The list comes from a sample in which the lowest values are over-represented; it also holds close analogues and randomly drawn compounds.
Quick one: just the number, no unit, thanks!

In the examples that follow, each entry is paired with its recorded viability index.
# compound, viability index
data = [
    ("CC(C)(C)[S@](=O)N1Cc2cc(C(=O)NCc3ccccn3)nc(-c3cccc(-c4ccccc4F)c3)c2[C@@H]1CCO", 0.955),
    ("CC(C)(C)[S@](=O)N1Cc2cc(C(=O)NCc3ccccc3F)nc(-c3cccc(-c4cncnc4)c3)c2[C@@H]1CCO", 0.89),
    ("CC(C)(C)S(=O)N1Cc2cc(C(=O)NCc3ccc(Oc4ccccc4)cc3)nc(-c3cccc(-c4cccc(F)c4)c3)c2[C@@H]1CCO (stereo partly specified)", 1.02),
    ("COc1ccc(CNC(=O)c2cc3c(c(-c4cccc(-c5ccc(C#N)cc5)c4)n2)[C@H](CCO)N([S@@](=O)C(C)(C)C)C3)cc1", 0.977),
]

Tell me the measured viability index of COc1ccc2c3c([nH]c2c1)[C@@H](CO)N(C[C@]31CCN(CC1)S(C)(=O)=O)C(=O)NC1CCCC1 , please.
1.01

Tell me the measured viability index of CN(C)C(=O)[C@@H]1[C@@H](CO)[C@@H]2Cn3c(ccc(C4=CCCC4)c3=O)[C@H]1N2S(=O)(=O)c1cn(C)cn1 , please.
0.984

Tell me the measured viability index of C[C@@H]1CN([C@@H](C)CO)C(=O)c2ccccc2-c2ccccc2CO[C@@H]1CN(C)Cc1cccnc1 , please.
1.05

Tell me the measured viability index of O=C(N[C@H]1C=C[C@@H](CC(=O)N2CCN(c3ccccc3)CC2)O[C@H]1CO)c1ccccc1 , please.
1.04

Tell me the measured viability index of CCS(=O)(=O)N1C[C@@]2(C1)CN(CC1CCOCC1)[C@H](CO)c1c2c2ccc(OC)cc2n1C , please.
0.985

Tell me the measured viability index of COc1ccc2c3c([nH]c2c1)[C@@H](CO)N(C[C@]31CN(C1)C(=O)NC(C)C)C(=O)C1CCOCC1 , please.
1.03

Tell me the measured viability index of C/C=C/c1ccc2c(c1)[C@@H]1[C@@H](CCN1C(=O)C1CCCC1)[C@H](CO)N2 , please.
1.06

Tell me the measured viability index of CN1C(=O)c2cc(NC(=O)c3ccc(F)c(F)c3)ccc2OC[C@H]2O[C@@H](CC(=O)N3CCCCC3)CC[C@H]21 , please.
1.1

Tell me the measured viability index of CC(C)(C)[S@@](=O)N1Cc2cc(C(=O)NCc3ccccc3F)nc(-c3cccc(-c4cncnc4)c3)c2[C@H]1CCO , please.
0.801

Tell me the measured viability index of O=C1CNC[C@@H]2[C@H](c3ccc(C#CC4CCCCC4)cc3)[C@@H](CO)N12 , please.
1.06

Tell me the measured viability index of CCc1cnc(N2[C@H](C#N)[C@@H](c3ccc(-c4cccc(F)c4)cc3)[C@@H]2CO)s1 , please.
1.12

Tell me the measured viability index of C[C@@H]1CN([C@@H](C)CO)C(=O)CCCn2nncc2CO[C@H]1CN(C)S(=O)(=O)c1ccc(Oc2ccccc2)nc1 , please.
1

----------
Catalogue of molecules with associated viability index
- Tested on: Plasmodium falciparum NF54 stage V gametocytes
- assay-text: viability index relative to DMSO control (fraction); higher = less gametocyte killing
- condition-context: 2.5 µM, library set: Broad Institute DOS, incubation time: 72 h
Whole data set: some 9,900 compounds, median “viability index relative to DMSO control” near 1, cut for the lowest 2% near 0.85. Shown is part of a subset that was picked to be rich in the lowest values.
Quick one: just the number, no unit, thanks!

In the examples that follow, each entry is paired with its recorded viability index.
# smiles-record, viability index
records = [
    ("COc1ccc2c3c([C@@H](CO)N(C[C@]33CCN(CC3)C(=O)c3ccccc3)C(=O)c3ccccc3)n(C)c2c1", 0.761),
    ("COc1ccc2c3c([C@@H](CO)N(C[C@]33CN(C3)C(=O)c3cccc(F)c3)C(=O)c3cccc(F)c3)n(C)c2c1", 0.848),
    ("COc1ccc(S(=O)(=O)Nc2ccc3c(c2)C(=O)N([C@@H](C)CO)C[C@@H](C)[C@@H](CN(C)S(=O)(=O)c2ccc(Cl)cc2)OCCCC[C@H](C)O3)cc1", 0.911),
]

Tell me the measured viability index of COc1ccc2c3c([C@H](CO)N(C[C@]33CCN(CC3)C(=O)c3ccccc3)C(=O)c3ccccc3)n(C)c2c1 , please.
0.979

Tell me the measured viability index of COc1ccc(S(=O)(=O)Nc2ccc3c(c2)C(=O)N([C@@H](C)CO)C[C@@H](C)[C@@H](CN(C)S(=O)(=O)c2ccc(Cl)cc2)OCCCC[C@@H](C)O3)cc1 , please.
0.77

Tell me the measured viability index of COc1ccc(S(=O)(=O)Nc2ccc3c(c2)C(=O)N([C@H](C)CO)C[C@@H](C)[C@H](CN(C)S(=O)(=O)c2ccc(Cl)cc2)OCCCC[C@@H](C)O3)cc1 , please.
0.887

----------
- Test system: Plasmodium falciparum NF54 stage V gametocytes
- assay-text: viability index relative to DMSO control (fraction); higher = less gametocyte killing
- condition-context: 2.5 µM, library set: Broad Institute DOS, incubation time: 72 h
The full ranking holds about 9,900 compounds; the median of “viability index relative to DMSO control” is about 1, and the lowest 2% start at about 0.85. The sample as a whole holds a higher share of the lowest values than the screen did.
Catalogue of compounds with associated viability index
Quick one: just the number, no unit, thanks!

In the examples that follow, each entry is paired with its recorded viability index.
# smiles-record, value-type, reading
measured = [
    ("COc1ccc(S(=O)(=O)Nc2ccc3c(c2)CC(=O)N([C@H](C)CO)C[C@@H](C)[C@H](CN(C)Cc2ccc(C(=O)Nc4ccccc4N)cc2)O3)cc1", "viability index", 0.966),
    ("COc1ccc(S(=O)(=O)Nc2ccc3c(c2)CC(=O)N([C@H](C)CO)C[C@H](C)[C@@H](CN(C)Cc2ccc(C(=O)Nc4ccccc4N)cc2)O3)cc1", "viability index", 1),
]

Tell me the measured viability index of COc1ccc(S(=O)(=O)Nc2ccc3c(c2)CC(=O)N([C@H](C)CO)C[C@@H](C)[C@@H](CN(C)Cc2ccc(C(=O)Nc4ccccc4N)cc2)O3)cc1 , please.
0.956

----------
- Tested on: Plasmodium falciparum NF54 stage V gametocytes
- assay-text: viability index relative to DMSO control (fraction); higher = less gametocyte killing
- condition-context: 2.5 µM, library set: Broad Institute DOS, incubation time: 72 h
Over roughly 9,900 compounds, “viability index relative to DMSO control” has its median near 1; the lowest 2% begin near 0.85. The full list was thinned out, with the lowest values kept by preference.
Doc: threshold 1 (exclusive). Items with viability index beneath it return met; others return not met.

Please review the entries below; each comes with its answer.
# smiles-record, tested-system, qualitative-label
records = [
    ("O=C(c1ccncc1)N1CC2(C1)[C@H](c1ccccc1)[C@@H](CO)N2CC1CC1", "Plasmodium falciparum NF54 stage V gametocytes", "not met"),
    ("Cc1ccccc1-c1ccc([C@@H]2[C@@H]3CN(S(=O)(=O)Cc4ccccc4)C[C@H]2N3)cc1", "Plasmodium falciparum NF54 stage V gametocytes", "met"),
    ("COc1ccc(S(=O)(=O)N(C)C[C@H]2OCCCC[C@H](C)Oc3ccc(NC(=O)Cc4ccccc4)cc3C(=O)N([C@@H](C)CO)C[C@H]2C)cc1", "Plasmodium falciparum NF54 stage V gametocytes", "met"),
    ("CS(=O)(=O)N1C[C@@H]2N[C@H](C1)[C@@H]2c1ccc(-c2ccccc2)cc1", "Plasmodium falciparum NF54 stage V gametocytes", "met"),
    ("COc1cccc(S(=O)(=O)N2CCCCN3[C@@H](CO)[C@@H](c4ccc(C#CCC(C)C)cc4)[C@@H]3C2)c1", "Plasmodium falciparum NF54 stage V gametocytes", "met"),
]

Could you please tell me whether viability index recorded for COc1ccc(S(=O)(=O)N(C)C[C@H]2OCCCC[C@H](C)Oc3ccc(NC(=O)Cc4ccccc4)cc3C(=O)N([C@H](C)CO)C[C@H]2C)cc1 is less than 1?
met

Could you please tell me whether viability index recorded for O=C(N[C@H]1CC[C@@H](CCn2cc(-c3ccccc3F)nn2)O[C@H]1CO)c1ccc2c(c1)OCO2 is less than 1?
not met

Could you please tell me whether viability index recorded for CC(C)(C)[S@](=O)N1Cc2cc(C(=O)NCCc3ccncc3)nc(-c3cccc(-c4cccc(C#N)c4)c3)c2[C@@H]1CCO is less than 1?
not met
